Value source: PubChem BioAssay

- target: NADPH oxidase 4 (Homo sapiens) (UniProt Q9NPH5)
- Sequence (Q9NPH5 whole entry, looked up): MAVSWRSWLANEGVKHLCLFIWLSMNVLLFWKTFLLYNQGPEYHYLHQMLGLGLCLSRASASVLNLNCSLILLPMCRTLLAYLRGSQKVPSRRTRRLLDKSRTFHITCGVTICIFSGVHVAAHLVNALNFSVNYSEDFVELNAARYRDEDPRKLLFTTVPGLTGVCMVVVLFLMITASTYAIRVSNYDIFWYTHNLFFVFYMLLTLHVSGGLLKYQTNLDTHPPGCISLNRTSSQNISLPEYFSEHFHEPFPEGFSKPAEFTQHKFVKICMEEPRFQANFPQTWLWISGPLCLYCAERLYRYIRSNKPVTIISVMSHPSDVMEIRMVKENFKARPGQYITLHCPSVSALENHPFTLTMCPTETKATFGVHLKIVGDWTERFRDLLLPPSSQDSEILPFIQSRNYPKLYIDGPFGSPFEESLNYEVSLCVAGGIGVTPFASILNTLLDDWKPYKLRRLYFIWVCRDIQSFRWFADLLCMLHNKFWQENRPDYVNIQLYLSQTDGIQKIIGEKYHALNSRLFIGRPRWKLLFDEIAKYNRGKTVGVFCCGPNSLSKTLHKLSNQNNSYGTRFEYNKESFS
- experimental.details: NOX4-dependent H2O2 signal modulators, primary screen, NOX inhibitor project, cell-based, HEK293-NOX4, tetracycline-induced, Amplex Red fluorescence (AID 1160)
- condition.set: 45 min, higher = more signal, called active from +8 up or from −8 down
Classify as follows. Reported z-score greater than or equal to -0.3: fulfilled. Reported z-score below: not fulfilled.

| compound | answer.label |
| --- | --- |
| COCCCNC(=O)[C@]1(Cc2ccccc2N=[N+]=[N-])N=C(c2ccc(OCCCO)cc2)O[C@@H]1c1ccccc1N=[N+]=[N-] | fulfilled |

Task item: Check the entry COCCOC(=O)N1C(=O)[C@@]2(c3cc(C#CCNC(N)=O)ccc31)[C@H](C(=O)N1CCCCCCC1)[C@H]1C(=O)O[C@H](c3ccccc3)[C@H](c3ccccc3)N1[C@@H]2c1ccc(O)cc1 : does z-score equal or exceed -0.3?
Reply: fulfilled

Task item: Quick check, z-score >= -0.3? COCCOC(=O)N1C(=O)[C@@]2(c3cc(C#CCC(C(=O)OC)C(=O)OC)ccc31)[C@H](c1ccc(OCCO)cc1)N1[C@H](c3ccccc3)[C@H](c3ccccc3)OC(=O)[C@H]1[C@@H]2C(=O)N1CCN(c2ncccn2)CC1
Reply: not fulfilled

Task item: Can C=C[C@@H](COC(C)=O)NS(=O)(=O)c1ccc(Br)cc1 be said to have z-score at or above -0.3?
Reply: not fulfilled

Task item: For this compound, is measured z-score -0.3 or higher? COC(=O)[C@H](Cc1ccccc1)N1CC(/C=C/C2CC2)=C[C@@H]1[C@@H](O)Cc1ccccc1
Reply: fulfilled

Task item: Reported z-score reaches at least -0.3 for C=CCN1Cc2ccccc2C[C@@]2(N=C(c3ccc(OCCCO)cc3)O[C@H]2c2ccccc2)C1=O ?
Reply: not fulfilled

Task item: Could you please find out whether CN1C(=O)[C@@]2(CCS(=O)(=O)c3ccccc3)N=C(c3ccc(OCCCO)cc3)O[C@H]2c2ccccc21 has z-score that meets -0.3 or exceeds it?
Reply: fulfilled

Task item: Determine whether measured z-score meets or exceeds -0.3 for COc1ccc([Si](C)(C)[C@H]2[C@H](CCO)O[C@@]3(C(=O)N(Cc4cccc(N5CCCCC5=O)c4)c4ccccc43)[C@@H]2C)cc1
Reply: not fulfilled

Task item: # bool: z-score of O=C1O[C@@H](c2ccccc2)[C@@H](c2ccccc2)N2[C@@H](c3ccc(O)cc3)[C@]3(C(=O)Nc4ccc(C#CCCO)cc43)[C@@H](C(=O)Nc3nc4ccccc4s3)[C@H]12 >= -0.3
Reply: fulfilled

Task item: Given the entry COc1ccc([Si](C)(C)[C@H]2[C@H](CCn3cc([C@H](O)c4ccccc4)nn3)O[C@@]3(C(=O)N(Cc4cccc(N5C(=O)c6cccc7cccc5c67)c4)c4ccccc43)[C@@H]2C)cc1 , answer whether its z-score meets or surpasses -0.3.
Reply: fulfilled

Task item: Is z-score for C=CC[C@@]12N=C(c3ccc(OCCCO)cc3)O[C@@H]1c1ccccc1N(CCS(=O)(=O)c1ccccc1)C2=O at or above -0.3?
Reply: fulfilled

Task item: Could you verify whether the entry COc1ccc(C(O)C2C=CC3C(=O)N(c4ccccc4)C(=O)C3N2Nc2ccc(C#N)cc2)c2ccccc12 (centres undefined) shows z-score of no less than -0.3?
Reply: not fulfilled

Task item: Given COc1ccc([Si](C)(C)[C@H]2[C@H](CCn3cc([C@H](O)c4ccccc4)nn3)O[C@@]3(C(=O)N(Cc4ccc(N5CCC5=O)cc4)c4ccccc43)[C@@H]2C)cc1 , state whether its z-score is at least -0.3.
Reply: fulfilled

Task item: Kindly determine if z-score recorded for C=CC[C@@]1(C(=O)O)N=C(c2ccc(OCCCO)cc2)O[C@@H]1c1ccccc1 is above or exactly -0.3.
Reply: fulfilled

====

- target: NADPH oxidase 5 (Homo sapiens) (UniProt Q96PH1)
- Sequence (Q96PH1 whole entry, looked up): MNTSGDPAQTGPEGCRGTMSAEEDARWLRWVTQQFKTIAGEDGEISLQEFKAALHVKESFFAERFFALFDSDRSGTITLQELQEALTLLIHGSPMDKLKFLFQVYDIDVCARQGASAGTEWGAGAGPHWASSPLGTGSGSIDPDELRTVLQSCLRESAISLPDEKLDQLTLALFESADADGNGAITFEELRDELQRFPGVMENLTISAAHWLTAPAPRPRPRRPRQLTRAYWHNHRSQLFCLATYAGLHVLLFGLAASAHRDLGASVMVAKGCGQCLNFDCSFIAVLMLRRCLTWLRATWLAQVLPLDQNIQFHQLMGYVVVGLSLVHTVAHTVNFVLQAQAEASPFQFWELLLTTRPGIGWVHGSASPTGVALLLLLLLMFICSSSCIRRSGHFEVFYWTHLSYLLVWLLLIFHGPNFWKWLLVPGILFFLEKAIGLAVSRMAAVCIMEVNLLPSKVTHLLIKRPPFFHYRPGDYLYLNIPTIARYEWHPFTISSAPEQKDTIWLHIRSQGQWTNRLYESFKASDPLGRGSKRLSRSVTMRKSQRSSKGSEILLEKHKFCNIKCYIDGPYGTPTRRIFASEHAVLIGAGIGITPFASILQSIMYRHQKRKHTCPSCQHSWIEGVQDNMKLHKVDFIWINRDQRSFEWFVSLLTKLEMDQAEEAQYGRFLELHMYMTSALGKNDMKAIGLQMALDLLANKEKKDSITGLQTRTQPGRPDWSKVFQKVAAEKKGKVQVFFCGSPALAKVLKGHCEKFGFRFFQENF
- experimental.details: NOX5-dependent H2O2 signal modulators, primary screen, NOX inhibitor project, cell-based, HEK293-NOX5, Amplex Red fluorescence (AID 1161)
- condition.set: HEK293-NOX5, ionomycin, 45 min, higher = more signal
YES means recorded z-score is 0.6 or above; NO means it is below 0.6.

| smiles.representation | target | answer.label |
| --- | --- | --- |
| CCOC(=O)C[C@H]1[C@H](OC(=O)Cc2ccc3c(c2)OCO3)[C@@H](NC(=O)Cc2ccc(OC)cc2)c2cc(OCCCO)ccc2N1C(=O)c1ccccc1 | NADPH oxidase 5 (Homo sapiens) (UniProt Q96PH1) | NO |

Task item: Identify whether the reported z-score of the following compound is 0.6 or greater: O=C1O[C@@H](c2ccccc2)[C@@H](c2ccccc2)N2[C@@H](c3ccc(O)cc3)[C@]3(C(=O)Nc4ccc(C#CC5=CCCCC5)cc43)[C@@H](C(=O)N3CCN(c4ncccn4)CC3)[C@H]12
Reply: YES

Task item: I'd appreciate it if you could say whether O=C1O[C@@H](c2ccccc2)[C@@H](c2ccccc2)N2[C@@H](c3ccccc3OCCO)[C@]3(C(=O)Nc4ccccc43)[C@@H](C(=O)NC[C@H](O)c3ccccc3)[C@H]12 has z-score at least equal to 0.6.
Reply: YES

Task item: Check if z-score >= 0.6 (inclusive). Item: COCCOC(=O)N1C(=O)[C@@]2(c3ccccc31)[C@H](C(=O)N1CCN(c3ncccn3)CC1)[C@H]1C(=O)O[C@H](c3ccccc3)[C@H](c3ccccc3)N1[C@@H]2c1ccc(OCCO)cc1
Reply: NO

Task item: Determine whether measured z-score meets or exceeds 0.6 for CCOC(=O)C[C@H]1[C@H](OC(=O)c2ccc(-c3ccccc3)cc2)[C@@H](NC(=O)c2ccc3ccccc3c2)c2cc(OCCCO)ccc2N1C(=O)c1ccc2ccccc2n1
Reply: NO

====

- target: Focal adhesion kinase 1 (Homo sapiens)
- experimental.details: small-molecule microarray binders of FAK, primary screen, biochemical, 635/667 nm fluorescence, BSA, DTT (AID 1130);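 further: composite of spot emission at 667 nm and signal to noise over triplicate slides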
- condition.set: PTK2 binding, 635 nm fluorescence, higher = more signal
Class key for composite z-score values: low class (below -0.2), middle class (-0.2 to below 0.5), high class (0.5 or more)

Please review the following examples before continuing.
| compound | answer.label |
| --- | --- |
| Cc1ccc(S[C@]2(C(=O)NCC(C)C)CC(=O)N(Cc3ccccc3Cl)[C@@H]2c2ccc(CO)cc2I)cc1 | low class |
| C=C(C(=O)CC[C@H](OC(C)=O)c1cccc(OCCO)c1)C(C)C | low class |
| CC(C)C[C@@H]1NC(=O)[C@H]2C[C@@H](C(=O)NCCCCCC[N+](C)(C)C)[C@@H](c3cccc(OCCO)c3)N2C1=O | middle class |
| O=c1cccc(-c2cccc(Cl)c2)o1 | high class |
| COc1ccc(C#Cc2ccc3c(c2)[C@]2(C(=O)N3)[C@H](C(=O)N3CCc4cc(OC)c(OC)cc4C3)[C@H]3C(=O)O[C@H](c4ccccc4)[C@H](c4ccccc4)N3[C@@H]2c2ccc(O)cc2)cc1 | high class |

Task item: // bin(item) where item = COc1ccc(C(O)C2C=CC3C(=O)N(c4ccccc4)C(=O)C3N2Nc2ccc(C#N)cc2)c2ccccc12 (stereo unspecified)
Reply: middle class

Task item: Band assignment needed for COc1ccc([Si](C)(C)[C@H]2[C@H](CCn3cc([C@H](O)c4ccccc4)nn3)O[C@@]3(C(=O)N(Cc4ccc(N5CCC5=O)cc4)c4ccccc43)[C@@H]2C)cc1 please.
Reply: low class

====

- experimental.details: basal RPMI8226 viability, no added stimulus, profiling panel, cell-based, calcein-AM fluorescence, 48 h, PK04 Diversity Set (AID 1166);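 further: cells grown under basal conditions without added stimulus; test concentration not given here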
- condition.set: RPMI8226 myeloma viability, higher = more signal
readout: z-score
Hey, just send me the number, nothing else.

| compound | readout | reported.result |
| --- | --- | --- |
| CC(C)N1C(=O)[C@@]2(c3ccc([N+](=O)[O-])cc3)CC(=O)N(C3CCCCC3)[C@@H]2c2ccc(CO)cc21 | z-score | 0.311 |
| O=C1O[C@@H](c2ccccc2)[C@@H](c2ccccc2)N2[C@@H](c3ccccc3OCCO)[C@]3(C(=O)Nc4ccc(C#CC5=CCCCC5)cc43)[C@@H](C(=O)NC[C@H](O)c3ccccc3)[C@H]12 | z-score | -4.07 |
| C=CC[C@H](OC(=O)Nc1ccc(OC)cc1)c1ccc(O)c2ccccc12 | z-score | -4.26 |
| COC(=O)C(CC#Cc1ccc2c(c1)[C@]1(C(=O)N2)[C@H](C(=O)O)[C@H]2C(=O)O[C@H](c3ccccc3)[C@H](c3ccccc3)N2[C@@H]1c1ccccc1OCCO)C(=O)OC | z-score | -4.09 |
| [N-]=[N+]=Nc1ccccc1[C@@H]1OC(c2ccc(OCCCO)cc2)=N[C@]1(CCS(=O)(=O)c1ccccc1)C(=O)NCCN1CCOCC1 | z-score | -1.58 |
| CCOC(=O)C[C@H]1[C@H](OC(=O)c2ccc(C(=O)c3ccccc3)cc2)[C@@H](NC(=O)c2ccc3ccccc3c2)c2cc(OCCCO)ccc2N1C(=O)c1ccccc1 | z-score | -0.602 |

Task item: Specify measured z-score for C=CCOC(=O)[C@@H]1[C@H]2C(=O)O[C@H](c3ccccc3)[C@H](c3ccccc3)N2[C@H](c2ccc(OCCOC(=O)[C@H]3C[C@H]4C(=O)N[C@@H](CCCC[N+](C)(C)C)C(=O)N4[C@H]3c3ccc(O)cc3)cc2)[C@@]12C(=O)Nc1ccc(I)cc12 .
Reply: -0.362

Task item: Supply recorded z-score for COC(=O)[C@@]1(Cc2ccccc2)[C@H]2c3cc(C(=O)N4CCCC4)n(C[C@H](O)CO)c3C[C@H]2CN1C(=O)c1ccccc1 here.
Reply: 0.302

Task item: Give the reported z-score for this compound. O=C1c2ccccc2[C@](Cc2ccccc2I)(C(=O)NCCN2CCOCC2)[C@H](c2ccc(CO)cc2)N1Cc1ccccc1
Reply: -0.347

Task item: In one line, give reported z-score of the entry COC(=O)[C@]1(CCS(=O)(=O)c2ccccc2)N=C(c2ccc(OCCCO)cc2)O[C@@H]1c1ccccc1CN=[N+]=[N-] .
Reply: -3.15

Task item: Entry CC=CC(O)C1C=CC2C(=O)N(C)C(=O)C2N1Nc1ccc([N+](=O)[O-])cc1[N+](=O)[O-] (stereo not drawn) needs its z-score filled in; supply it.
Reply: -0.485

Task item: Give z-score for CCOC(=O)C[C@H]1[C@H](OC(=O)Cc2ccc3c(c2)OCO3)[C@@H](NC(=O)Cc2ccc(OC)cc2)c2cc(OCCCO)ccc2N1C(=O)c1ccccc1
Reply: 0.192

Task item: Provide z-score value for the following compound: CC(C)C(=C=CC[C@H](O)c1ccc(OCCO)cc1)C[C@H](O)c1cc(Cl)cc(Cl)c1O
Reply: -3.74
